- assay_system: T1, human OPGbp [143-317] (human, UniProt O14788 143-317)
- T1 construct: also called OPGL
- T1 sequence (looked up): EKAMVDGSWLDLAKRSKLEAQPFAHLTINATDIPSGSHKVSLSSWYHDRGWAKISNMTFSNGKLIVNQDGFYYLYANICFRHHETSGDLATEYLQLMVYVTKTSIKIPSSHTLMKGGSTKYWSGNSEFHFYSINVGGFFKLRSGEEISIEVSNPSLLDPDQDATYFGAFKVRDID
- method_description: SPR (BIAcore), immobilized OPGbp [143-317]
endpoint_label: Kd (nM)
Could you give me the number in nM? Just the number is fine.

# example entries with known answers
[
  {
    "binder": "“AT” antibody variant S96Y (heavy chain CDR3) (antibody, name in Kabat numbering, V domains shown, not shown: human IgG1 CH1, hinge, CH2 and CH3) VH: QVQLVQSGAEVRKPGASVKVSCKASGYDFSNYAIHWVRQAPGQRLEWMGWINAGNGNTKFSQKFQGRITVTRDTAASTAYMELRSLRSEDTAVYYCARDYSNMVRGIIIAYYFDYWGQGTLVTVSS VL: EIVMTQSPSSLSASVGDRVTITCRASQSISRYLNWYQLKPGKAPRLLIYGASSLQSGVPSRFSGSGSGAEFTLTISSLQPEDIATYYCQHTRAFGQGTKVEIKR",
    "Kd [nM]": 0.67
  },
  {
    "binder": "“AT” antibody variant S96I (heavy chain CDR3) (antibody, name in Kabat numbering, V domains shown, not shown: human IgG1 CH1, hinge, CH2 and CH3) VH: QVQLVQSGAEVRKPGASVKVSCKASGYDFSNYAIHWVRQAPGQRLEWMGWINAGNGNTKFSQKFQGRITVTRDTAASTAYMELRSLRSEDTAVYYCARDISNMVRGIIIAYYFDYWGQGTLVTVSS VL: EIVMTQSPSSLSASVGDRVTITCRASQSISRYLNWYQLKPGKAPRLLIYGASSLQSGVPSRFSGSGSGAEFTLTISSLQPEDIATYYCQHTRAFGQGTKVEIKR",
    "Kd [nM]": 1.56
  },
  {
    "binder": "“AT” antibody variant S96N (heavy chain CDR3) (antibody, name in Kabat numbering, V domains shown, not shown: human IgG1 CH1, hinge, CH2 and CH3) VH: QVQLVQSGAEVRKPGASVKVSCKASGYDFSNYAIHWVRQAPGQRLEWMGWINAGNGNTKFSQKFQGRITVTRDTAASTAYMELRSLRSEDTAVYYCARDNSNMVRGIIIAYYFDYWGQGTLVTVSS VL: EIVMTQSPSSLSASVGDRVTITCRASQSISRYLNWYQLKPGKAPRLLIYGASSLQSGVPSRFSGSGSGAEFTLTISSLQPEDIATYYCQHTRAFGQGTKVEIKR",
    "Kd [nM]": 1.53
  }
]

Requested read-out: Kd. Entry: “AT” antibody variant S96K (heavy chain CDR3) (antibody, name in Kabat numbering, V domains shown, not shown: human IgG1 CH1, hinge, CH2 and CH3) VH: QVQLVQSGAEVRKPGASVKVSCKASGYDFSNYAIHWVRQAPGQRLEWMGWINAGNGNTKFSQKFQGRITVTRDTAASTAYMELRSLRSEDTAVYYCARDKSNMVRGIIIAYYFDYWGQGTLVTVSS VL: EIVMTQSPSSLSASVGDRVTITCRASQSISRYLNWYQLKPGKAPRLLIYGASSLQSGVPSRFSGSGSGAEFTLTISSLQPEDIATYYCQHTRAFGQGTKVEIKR
0.31
